- tgt: Human SST5 somatostatin receptor (SSTR5) (Homo sapiens, UniProt P35346)
- Construct: expressed in transfected cells; host or cells: HEK-293 EBNA
- Sequence (P35346 whole entry): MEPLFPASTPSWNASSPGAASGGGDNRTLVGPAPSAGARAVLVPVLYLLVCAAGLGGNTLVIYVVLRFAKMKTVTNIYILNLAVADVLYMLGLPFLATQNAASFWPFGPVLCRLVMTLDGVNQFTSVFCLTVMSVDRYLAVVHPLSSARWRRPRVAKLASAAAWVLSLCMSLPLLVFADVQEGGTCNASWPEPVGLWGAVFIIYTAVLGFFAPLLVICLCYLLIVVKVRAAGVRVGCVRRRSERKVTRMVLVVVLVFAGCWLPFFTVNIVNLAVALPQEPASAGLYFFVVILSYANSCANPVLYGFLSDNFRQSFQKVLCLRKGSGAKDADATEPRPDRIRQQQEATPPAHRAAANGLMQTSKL
- test details: Filter plate assay for SST5 receptor, displacement of [125I]SST-14
- Type: binding
- reported conditions: 10 uM
endpoint name: SSTR5 Inhib 10 uM % (inhibition of binding of SST-14 to SSTR5) (%)

COC[C@H]1OC(OCc2ccc(Cl)cc2)[C@H](NC(=O)CCNC(=N)N)[C@H](OCc2ccc(-c3ccccc3)cc2)[C@@H]1O (some centres unmarked) = 84
COC[C@H]1OC(OCc2ccc3ccccc3c2)[C@H](NC(=O)CCN)[C@H](OCc2ccccc2)[C@@H]1O (some centres unmarked) = 97
COC[C@H]1OC(OCc2ccc(-c3ccccc3)cc2)[C@H](NC(=O)CCCN)[C@@H](OCc2ccc(Cl)cc2)[C@@H]1O (some centres unmarked) [Compound 74] = 89
COC[C@H]1OC(OCc2ccc(-c3ccccc3)cc2)[C@H](NC(=O)CCCN)[C@@H](OCc2ccc(Cl)cc2)[C@@H]1O (some centres unmarked) [Compound 63] = 90
COC1C(O)C(COCc2ccc(Cl)cc2)OC(OCc2ccc(-c3ccccc3)cc2)C1NC(=O)CCNC(=N)N (centres unmarked) = 88
CSC1O[C@H](COCc2ccccc2)[C@@H](O)[C@@H](OCc2ccc(Cl)cc2)[C@H]1NC(=O)CCNC(=N)N (some centres unmarked) = 81
COC[C@H]1OC(OCc2ccccc2)[C@H](NC(=O)CCCNC(=N)N)[C@H](OCc2ccc(Cl)cc2)[C@@H]1O (some centres unmarked) = 79
CSC1O[C@H](COCc2ccc(-c3ccccc3)cc2)[C@@H](O)[C@@H](OCc2ccc3ccccc3c2)[C@H]1NC(=O)CCN (some centres unmarked) = 89
CSC1O[C@H](COCc2ccc(Cl)cc2)[C@@H](O)[C@@H](OCc2ccc3ccccc3c2)[C@H]1NC(=O)CN (some centres unmarked) = 73
COC[C@H]1OC(OCc2ccccc2)[C@H](NC(=O)CCNC(=N)N)[C@H](OCc2ccccc2)[C@@H]1O (some centres unmarked) = 83
COC[C@H]1OC(OCCc2ccccc2)[C@H](NC(=O)CCCN)[C@@H](OCc2ccc(Cl)cc2)[C@@H]1O (some centres unmarked) [Compound 42] = 94
COC[C@H]1OC(OCc2ccc3ccccc3c2)[C@H](NC(=O)CCNC(=N)N)[C@@H](OCc2ccc(-c3ccccc3)cc2)[C@@H]1O (some centres unmarked) [Compound 86] = 87
COC[C@H]1OC(OCc2ccc3ccccc3c2)[C@H](NC(=O)CCCNC(=N)N)[C@@H](OCc2ccc(Cl)cc2)[C@@H]1O (some centres unmarked) [Compound 23] = 96
COC[C@H]1OC(OCc2ccc3ccccc3c2)[C@H](NC(=O)CCNC(=N)N)[C@H](OCc2ccc3ccccc3c2)[C@@H]1O (some centres unmarked) = 91
COC[C@H]1OC(OCCc2ccccc2)[C@H](NC(=O)CCCN)[C@@H](OCc2ccc(-c3ccccc3)cc2)[C@@H]1O (some centres unmarked) = 90
COC[C@H]1OC(OCc2ccc3ccccc3c2)[C@H](NC(=O)CCNC(=N)N)[C@@H](OCc2ccccc2)[C@@H]1O (some centres unmarked) = 72
CO[C@H]1[C@H](O)[C@@H](COCc2ccc(-c3ccccc3)cc2)OC(OCc2ccc(-c3ccccc3)cc2)[C@@H]1NC(=O)CNC(=N)N (some centres unmarked) = 89
COC[C@H]1OC(OCc2ccccc2)[C@H](NC(=O)CCNC(=N)N)[C@H](OCc2ccc3ccccc3c2)[C@@H]1O (some centres unmarked) = 91
COC[C@H]1OC(OCc2ccc3ccccc3c2)[C@H](NC(=O)CCCNC(=N)N)[C@@H](OCc2ccccc2)[C@@H]1O (some centres unmarked) = 79
CSC1O[C@H](COCc2ccc3ccccc3c2)[C@@H](O)[C@@H](OCc2ccc(Cl)cc2)[C@H]1NC(=O)CNC(=N)N (some centres unmarked) = 82
CO[C@H]1[C@H](O)[C@@H](COCc2ccc3ccccc3c2)OC(OCc2ccc(Cl)cc2)[C@@H]1NC(=O)CCCN (some centres unmarked) = 81
CSC1O[C@H](COCc2ccccc2)[C@@H](O)[C@@H](OCc2ccc(-c3ccccc3)cc2)[C@H]1NC(=O)CCCNC(=N)N (some centres unmarked) = 76
COC[C@H]1OC(OCc2ccc3ccccc3c2)[C@H](NC(=O)CCNC(=N)N)[C@H](OCc2ccccc2)[C@@H]1O (some centres unmarked) = 87
COC[C@H]1OC(OCc2ccccc2)[C@H](NC(=O)CCN)[C@H](OCc2ccc(-c3ccccc3)cc2)[C@@H]1O (some centres unmarked) = 91
COC[C@H]1OC(OCc2ccc3ccccc3c2)[C@H](NC(=O)CCCNC(=N)N)[C@@H](OCc2ccc3ccccc3c2)[C@@H]1O (some centres unmarked) [Compound 75] = 89
CSC1O[C@H](COCc2ccc3ccccc3c2)[C@@H](O)[C@@H](OCc2ccccc2)[C@H]1NC(=O)CCN (some centres unmarked) = 83
